Assay: Stability of cannabinoid and Vitamin E components of Beverage 2 (AB Red) stored at 8° C. and 21-25° C., LCMSMS over 570 days
Conditions: 8° C., 3 days
Property: Stability of Cannabinoids in AB Red; scope: individual molecules
Write the answer as a number in µg/mL, unit excluded.

The cases that follow already have their Stability of Cannabinoids in AB Red on record.
molecule="CCCCCc1cc2c(c(O)c1C(=O)O)[C@@H]1C=C(C)CC[C@H]1C(C)(C)O2 [D9 THCA, delta-9-tetrahydrocannabinolic acid]" assayreadout="Stability of Cannabinoids in AB Red" observedresult=1.35
molecule="CCCc1cc(O)c2c(c1)OC(C)(C)[C@@H]1CCC(C)=C[C@@H]21 [THCV, delta-9-tetrahydrocannabivarin]" assayreadout="Stability of Cannabinoids in AB Red" observedresult=3.20

Value lookup for Stability of Cannabinoids in AB Red; key = C=C(C)[C@@H]1CCC(C)=C[C@H]1c1c(O)cc(CCCCC)c(C(=O)O)c1O 1.64

Report Stability of Cannabinoids in AB Red for CCCCCc1cc(O)c(C/C=C(\C)CCC=C(C)C)c(O)c1 please. 4.70

What Stability of Cannabinoids in AB Red value was documented for this molecule, C=C(C)[C@@H]1CCC(C)=C[C@H]1c1c(O)cc(CCC)cc1O ? 0.199

// lookup Stability of Cannabinoids in AB Red for CCCCCc1cc(O)c2c(c1)OC1(C)CCC3C1C2C3(C)C (stereo not drawn) 0.499

Look up Stability of Cannabinoids in AB Red for this molecule: CCCCCc1cc(O)c2c(c1)OC(C)(C)[C@@H]1CCC(C)=C[C@@H]21 [D9 THC, delta-9-tetrahydrocannabinol, reference compound] 12.7

May I ask what Stability of Cannabinoids in AB Red has been recorded for CCCCCc1cc(O)c2c(c1)OC(C)(C)c1ccc(C)cc1-2 ? 2.83

What Stability of Cannabinoids in AB Red value was documented for this molecule, CCCCCc1cc(O)c2c(c1)OC(C)(CCC=C(C)C)C=C2 (stereo not drawn) ? 0.285
